inhibition values by entry
Target: CDK3/Cyclin E (Homo sapiens) (UniProt P24864+Q00526);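 also: each figure is a mean percent inhibition of the CDK3/cyclin E complex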
Sequence (P24864 whole entry, looked up): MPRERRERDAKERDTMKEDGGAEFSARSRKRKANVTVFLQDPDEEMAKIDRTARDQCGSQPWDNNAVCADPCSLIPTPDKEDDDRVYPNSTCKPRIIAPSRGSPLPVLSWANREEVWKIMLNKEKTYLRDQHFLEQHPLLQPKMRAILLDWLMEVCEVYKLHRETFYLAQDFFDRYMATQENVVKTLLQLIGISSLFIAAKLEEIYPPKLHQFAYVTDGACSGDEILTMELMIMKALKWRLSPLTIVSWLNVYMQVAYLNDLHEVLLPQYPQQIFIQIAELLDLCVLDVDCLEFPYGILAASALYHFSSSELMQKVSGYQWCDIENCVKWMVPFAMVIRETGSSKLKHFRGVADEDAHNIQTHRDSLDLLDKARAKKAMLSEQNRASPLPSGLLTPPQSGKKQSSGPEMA
Sequence (Q00526 whole entry, looked up): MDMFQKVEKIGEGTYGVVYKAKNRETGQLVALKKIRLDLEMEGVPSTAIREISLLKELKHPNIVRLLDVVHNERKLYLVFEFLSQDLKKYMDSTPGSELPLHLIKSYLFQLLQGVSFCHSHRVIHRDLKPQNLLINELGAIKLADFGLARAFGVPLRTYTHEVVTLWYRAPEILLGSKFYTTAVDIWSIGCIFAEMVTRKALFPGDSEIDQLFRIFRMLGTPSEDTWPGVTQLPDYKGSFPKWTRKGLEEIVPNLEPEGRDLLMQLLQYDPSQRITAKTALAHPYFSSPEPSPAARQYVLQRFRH
Conditions: at 1 µM
Provide the reading as a plain figure in %.

Consider the worked cases shown below.
>>> print(df.to_string())
                                 mol_smiles                           subject_of_test  assay_result
0  Oc1cccc(-c2nc(-c3ccccc3)[nH]c2-c2ccncc2)c1  CDK3/Cyclin E (Homo sapiens) (UniProt P24864+Q00526)            -2
1  Cc1cc(Cl)cc2c1NC(=O)C2=NNc1ccc(S(N)(=O)=O)cc1  CDK3/Cyclin E (Homo sapiens) (UniProt P24864+Q00526)         -0.36
2         N#Cc1c(NC(=O)c2ccccc2F)sc2c1CCCC2  CDK3/Cyclin E (Homo sapiens) (UniProt P24864+Q00526)         -1.38

Attention now shifts to the item below.
Ask: // query inhibition value for entry COc1cc2ncn(-c3cc(OCc4ccccc4S(C)(=O)=O)c(C#N)s3)c2cc1OC
Reply: 2.11
